All values here come from patent US20240043435A1.

target_entity: TYK2-JH2 (aa 575-869, in-house) protein (Homo sapiens)
Construct: TYK2-JH2 (aa 575-869, in-house) protein; made in house
Sequence (P29597 575-869): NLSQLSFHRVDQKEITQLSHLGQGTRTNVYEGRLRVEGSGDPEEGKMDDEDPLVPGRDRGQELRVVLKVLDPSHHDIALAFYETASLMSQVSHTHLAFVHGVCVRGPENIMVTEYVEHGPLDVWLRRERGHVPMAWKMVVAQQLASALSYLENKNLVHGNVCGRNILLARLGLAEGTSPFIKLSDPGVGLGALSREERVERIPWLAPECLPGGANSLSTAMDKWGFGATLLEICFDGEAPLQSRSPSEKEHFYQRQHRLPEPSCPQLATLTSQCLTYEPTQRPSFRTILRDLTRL
assay_procedure: TYK2-JH2 biochemical assay (HTRF probe displacement)
Type: binding
conditions: Biochemical assay; read-out: TYK2-JH2 IC50
Protocol: Assay A: TYK2-JH2 Biochemical Assay Compounds disclosed herein were tested for blocking of TYK2-JH2 (aa 575-869, in-house) protein with its probe in an assay based on Homogeneous Time Resolved Fluorescence. […] The HTRF signals (ex337 nm, em620 nm/665 nm) were read on BMG PHERAstar FS instrument. The inhibition percentage of TYK2 interaction with its probe in presence of increasing concentrations of compounds was calculated based on the ratio of fluorescence at 615 nm to that at 665 nm. […]
assay_readout: pIC50
One number for each entry, as −log10 of the molar value.

Here's what some known entries look like.
molecule	pIC50
CC(=O)Nc1cc(Nc2cc(C#N)cc(S(C)(=O)=O)c2)c(-c2ccn(C)n2)cn1	9.72
CC(=O)Nc1cc(Nc2cc(O[C@H]3C[C@H](O)C3)cc(S(C)(=O)=O)c2)c(-c2ccc(F)cn2)cn1	10.14
CC(=O)Nc1cc(Nc2cc(-c3ccccc3)cc(S(C)(=O)=O)n2)c(-c2ccn(C)n2)cn1	10.62
COc1cc(Nc2cc(NC(C)=O)ncc2-c2ccc(N3C[C@@H](C)O[C@@H](C)C3)cn2)nc(S(C)(=O)=O)c1	10.57
CC(=O)Nc1cc(Nc2ccc(F)c(S(C)(=O)=O)n2)c(-c2ccn(C)n2)cn1	10.55

Answer for every listed entry: what is its pIC50? The entries follow.
1. CC(=O)Nc1cc(Nc2cccc(S(C)(=O)=O)c2)c(-c2cc(C)nc(C)n2)cn1
2. COCCOc1cc(Nc2cc(NC(C)=O)ncc2-c2ccc(C(C)(C)O)cn2)nc(S(C)(=O)=O)c1
3. COC(C)c1cc(Nc2cc(NC(C)=O)ncc2-c2ccn(C)n2)nc(S(C)(=O)=O)c1 (stereo not drawn)
4. CCn1ccc(-c2cnc(NC(C)=O)cc2Nc2cc(C)cc(S(C)(=O)=O)c2)n1

Response line:
1. 9.85
2. 10.85
3. 10.57
4. 10.47
